The reader will find reported RFP signal change values listed item by item below.
# experiment-notes: GFP drop in mixed WT/humanized-ribosome E. coli culture – GFP/RFP fluorescence, OD600, single point, bacterial rRNA inhibitor project, primary screen (AID 720706)
# run-conditions: E. coli WT GFP vs humanized-ribosome RFP mutants, 24 h; measured here: RFP humanized mutant strains, DMSO median 0, no signal -100, concentration not given here
Hit rate of the full screen: of about 350,000 compounds, about 5,500 (1.6%) were called active. The sample as a whole holds a higher share of actives than the screen did.

CC(C)NC(=O)N1[C@H](C(=O)N2CCc3ccccc3C2)[C@@H](CO)[C@@H]2Cn3c(cccc3=O)[C@@H]21: -2.12%
O=C(COC(=O)Cc1c[nH]c2ccccc12)NCCc1ccccc1: 1.57%
O=C(NCC[C@H]1CC[C@H](NS(=O)(=O)c2ccccc2)[C@H](CO)O1)c1cc(Cl)cc(Cl)c1: 22%
O=C(NCCc1c[nH]c2ccccc12)c1cc2ccccc2oc1=O: -0.892%
C[C@H](CO)N1C[C@H](C)[C@H](CN(C)S(C)(=O)=O)Oc2ncc(C3=CCCC3)cc2C1=O: -1.55%

Query: Name the recorded RFP signal change for CCCNC(=O)N1CC(=O)N2[C@@H](CO)[C@H](c3ccc(-c4ccc(C)cc4)cc3)[C@@H]2C1 .
Response: -7.67%

Query: Reported RFP signal change, compound O=C(NCCc1c[nH]c2ccccc12)C1CCN(Cc2ccc(Br)cc2)CC1 : ____
Response: -12.4%

Query: Entry C[C@H](CO)N1C[C@H](C)[C@H](CN(C)CC2CC2)OCCCC[C@H](C)Oc2ccc(NS(=O)(=O)c3cccs3)cc2C1=O : reported RFP signal change = ?
Response: -0.839%

Query: Item O=C(CCc1c[nH]c2ccccc12)NCCOc1ccccc1 has what recorded RFP signal change?
Response: 0.609%

Sourced from PubChem BioAssay AID720706
